Test system: OVCAR-5 ovarian
experiment.description: NCI-60 one-dose screen, 48 h (100 = growth as untreated, 0 = no growth, -100 = all killed)
test.conditions: 10 µM unless noted
The panel holds about 83,000 compounds, 20% with a hit somewhere; the sample as a whole holds those more often.
growth strictly less than 30% = 1. Otherwise 0.

growth strictly < 30% for this molecule? `O=C(NC1CCNCC1)c1[nH]ncc1NC(=O)c1c(Cl)cccc1Cl` 1

Here's an entry: CCN(CC)CCCC(C)Nc1cc(-c2ccc(C(F)(F)F)cc2)c(C#N)c2nc3ccccc3n12 (configuration not stated) . Is its growth below 30%? 1

Lab note: growth threshold 30%. Does this molecule come in strictly under it? `CO[C@H]1C[C@@H]2CC[C@@H](C)[C@@](O)(O2)C(=O)C(=O)N2CCCC[C@H]2C(=O)O[C@H]([C@H](C)C[C@@H]2CC[C@@H](O)[C@H](OC)C2)CC(=O)[C@H](C)/C=C(\C)[C@@H](O)[C@@H](OC)C(=O)[C@H](C)C[C@H](C)\C=C/C=C/C=C/1C` 0

Could you please tell me whether growth recorded for `O=C(Cc1ccc(/C=C/C(=O)c2ncc[nH]2)cc1)Nc1ccc(S(F)(F)(F)(F)F)cc1` is less than 30%? 0

Determine whether this molecule shows growth lower than 30% (ties excluded): `O=C1/C(=C\c2cccc(OCCCCCOc3ccc(Cl)cc3)c2)N=C2SCCCN12` 0
